# PROTOCOL: qHTS of pediatric cancer cell lines to identify multiple opportunities for drug repurposing: Confirmatory screen for BT-12 cells (AID 1347112); also: potency is read from the fitted curve at half-maximal effect;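 also: viability read after 48 h of compound exposure; nearly all actives have a fitted effect of over 55% in size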
# EXPERIMENTAL CONTEXT: BT-12 rhabdoid tumor cells, viability; series mostly up to 45.9 µM
Inconclusive results are not listed. Active and inactive are the calls of the source. Calls follow the shape of the dose curve; as a rule, active = well fitted cell-killing curve with a large enough effect; inconclusive = small, poorly fitted or top-dose-only effect; inactive = flat fitted curve, though single readings scatter.
MEASURED ATTRIBUTE: Potency

compound=Cc1ccc(C(=O)N(CCCN)[C@@H](c2nc3cc(Cl)ccc3c(=O)n2Cc2ccccc2)C(C)C)cc1 measured_result="0.759 µM (active)"
compound=Cc1ccc2c(c1)C(=O)[C@]1(O)CCN(c3ccccc3)C1=N2 measured_result=inactive
compound=OCCn1cc(-c2ccc3c(c2)CCC3=NO)c(-c2ccncc2)n1 measured_result=inactive
compound=Cc1ccc(S(=O)(=O)Nc2nc3ccccc3nc2Nc2ccc3nsnc3c2)cc1 measured_result=inactive
compound="CCCC1OC2C[C@@H]3[C@H]4CCC5=CC(=O)C=C[C@]5(C)[C@H]4C(O)C[C@]3(C)[C@]2(C(=O)CO)O1 (stereo partly drawn)" measured_result=inactive
compound=CC(C)CN(C[C@@H](O)[C@H](Cc1ccccc1)NC(=O)O[C@H]1CO[C@H]2OCC[C@H]21)S(=O)(=O)c1ccc(N)cc1 measured_result=inactive
compound=CNC(=O)[C@H](CC1=CN=C2C=CCC=C12)NC(=O)[C@@H](CC(=O)NO)CC(C)C measured_result="2.61 µM (active)"
compound=CN(C)CC[C@H](CSc1ccccc1)Nc1ccc(S(=O)(=O)NC(=O)c2ccc(N3CCN(Cc4ccccc4-c4ccc(Cl)cc4)CC3)cc2)cc1[N+](=O)[O-] measured_result=inactive
compound=Cc1ccccc1-n1c(Cn2nc(-c3cccc(O)c3)c3c(N)ncnc32)nc2cccc(C)c2c1=O measured_result=inactive
compound=C=C1[C@H](n2cnc3c(=O)[nH]c(N)nc32)C[C@H](O)[C@H]1CO measured_result=inactive
compound=CC(C)(C)c1[nH]cnc1C=c1[nH]c(=O)c(=Cc2ccccc2)[nH]c1=O measured_result="0.202 µM (active)"
compound=Cc1ccc(C(=O)N(CCCN)[C@@H](c2oc3cc(Cl)ccc3c(=O)c2Cc2ccccc2)C(C)C)cc1 measured_result="0.0104 µM (active)"
compound=COc1cc(CNC(=O)CCCCC=CC(C)C)ccc1O measured_result=inactive
compound="COC1CCC(C(=O)c2ccc3nc4c(cc3c2)CCCO4)CC1 (stereo not drawn)" measured_result=inactive
compound=COc1ccc(-c2ccc3ncc4c(c3c2)n(-c2ccc(N3CCNCC3)c(C(F)(F)F)c2)c(=O)n4C)cn1 measured_result="7.37 µM (active)"
compound=NC(N)=Nc1nc(CSCCC(N)=NS(N)(=O)=O)cs1 measured_result=inactive
compound=Cc1cccc(-c2[nH]c(C(C)(C)C)nc2-c2ccc3c(c2)OCO3)n1 measured_result="11.7 µM (active)"
compound=COc1cc2ncnc(Nc3cc(Br)c(O)c(Br)c3)c2cc1OC measured_result=inactive
compound=C=CC(=O)Nc1cccc(Sc2nc(Nc3ccc(N4CCN(C)CC4)cc3)ncc2Cl)c1 measured_result="23.3 µM (active)"
compound=CCN(CCO)CCCOc1ccc2c(Nc3cc(CC(=O)Nc4cccc(F)c4)[nH]n3)ncnc2c1 measured_result=inactive
compound=C[C@@H]1[C@H](O)[C@@H](C)C=CC=CC=CC=CC=CC=CC=C[C@H](O[C@@H]2O[C@H](C)[C@H](O)[C@H](N)[C@@H]2O)C[C@@H]2O[C@](O)(C[C@@H](O)C[C@@H](O)[C@H](O)CC[C@@H](O)C[C@@H](O)CC(=O)O[C@H]1C)C[C@H](O)[C@@H]2C(=O)O measured_result=inactive
compound="CC1(C)OC2CC3C4CC(F)C5=CC(=O)C=CC5(C)C4C(O)CC3(C)[C@]2(C(=O)CO)O1 (stereo partly drawn)" measured_result=inactive
compound=CC[C@H](NC(=O)[C@H](C)NC)C(=O)N1C[C@@H](O)C[C@H]1Cc1c(-c2[nH]c3cc(F)ccc3c2C[C@H]2C[C@H](O)CN2C(=O)[C@H](CC)NC(=O)[C@H](C)NC)[nH]c2cc(F)ccc12 measured_result="18.5 µM (active)"
compound=O=C1Nc2ccc(I)cc2C1=Cc1cc(Br)c(O)c(Br)c1 measured_result=inactive
compound=CCCCn1c(=O)n(Cc2ccccc2F)c(=O)c2[nH]c(Cc3ccc(NC(C)=O)cc3)nc21 measured_result=inactive
compound=CCC[C@H](N[C@@H](C)C(=O)N1[C@@H]2CCCC[C@H]2C[C@H]1C(=O)O)C(=O)OCC measured_result=inactive
compound="CC1(C)CC(=O)c2c(C(F)(F)F)nn(-c3ccc(C(N)=O)c(NC4CCC(O)CC4)c3)c2C1 (stereo not drawn)" measured_result=inactive
compound=CCC(=O)OCC(=O)[C@@]1(OC(=O)CC)[C@@H](C)C[C@@H]2[C@H]3CCC4=CC(=O)C=C[C@]4(C)[C@@]3(F)[C@@H](O)C[C@@]21C measured_result=inactive
compound=CN(C)CCN(C)C(=O)c1ccc(NC(=O)Nc2ccc(-c3nc(N4CCOCC4)c4ccn(CC(F)(F)F)c4n3)cc2)cc1 measured_result="18.5 µM (active)"
compound=CC[C@]1(O)C[C@H]2CN(CCC3=c4ccccc4=N[C]3[C@@](C(=O)OC)(c3cc4c(cc3OC)N(C)[C@H]3[C@@](O)(C(N)=O)[C@H](O)[C@]5(CC)C=CCN6CC[C@]43[C@@H]65)C2)C1 measured_result="0.147 µM (active)"
compound=CC(C)C[C@@H](C(=O)N[C@H](C(=O)OC1CCCC1)c1ccccc1)[C@H](O)C(=O)NO measured_result=inactive
compound=CC(=O)N1CCN(c2ccc(OCc3nn(C)c(C)c3-c3cccc4c(CCCOc5cc(C)c(Cl)c(C)c5)c(C(=O)O)n(Cc5cccnc5)c34)cc2)CC1 measured_result=inactive
compound=CN[C@@H]1CN(c2ccc3c(=O)c(C(=O)O)cn(-c4nccs4)c3n2)C[C@@H]1OC measured_result="9.1 µM (active)"

* * *

# PROTOCOL: qHTS of pediatric cancer cell lines to identify multiple opportunities for drug repurposing: Primary screen for NB-EBc1 cells (AID 1347095)
# EXPERIMENTAL CONTEXT: NB-EBc1 neuroblastoma viability, CellTiter-Glo luminescence, 48 h; series mostly up to 46 µM
Results filed as inconclusive are left out. Active and inactive are the calls of the source. Calls follow the shape of the dose curve; as a rule, active = well fitted cell-killing curve with a large enough effect; inconclusive = small, poorly fitted or top-dose-only effect; inactive = no such curve, though single readings can be large or run the other way.
Labels: y for active, n for inactive

compound="OC1CCC(Nc2ncc3nc(Nc4c(F)cc(F)cc4F)n([C@@H]4CCOC4)c3n2)CC1 (some centres undefined)" class_label=y
compound=CC(C)C[C@@H](C(=O)N[C@H](C(=O)OC1CCCC1)c1ccccc1)[C@H](O)C(=O)NO class_label=y
compound=CCC=CC[C@H]1C(=O)CC[C@@H]1CC(=O)OC class_label=n
compound=Clc1ccc(C2(c3ccc(-c4cn[nH]c4)cc3)CCNCC2)cc1 class_label=y
compound=NC1(C(=O)N[C@@H](CCO)c2ccc(Cl)cc2)CCN(c2ncnc3[nH]ccc23)CC1 class_label=y
compound=CCOC(=O)[C@H]1O[C@H]1C(=O)N[C@@H](CC(C)C)C(=O)NCCC(C)C class_label=n
compound=C=C1c2cccc(O)c2C(O)=C2C(=O)[C@@]3(O)C(O)=C(C(N)=O)C(=O)[C@@H](N(C)C)[C@@H]3[C@@H](O)[C@H]12 class_label=n
compound=CC(C)(C)c1[nH]cnc1C=c1[nH]c(=O)c(=Cc2ccccc2)[nH]c1=O class_label=y
compound=COc1c(C)cnc(Cn2cnc3c(Cl)nc(N)nc32)c1C class_label=y

* * *

# System: MKL-2
# PROTOCOL: qHTS assay to identify novel small-molecules to repurpose for Merkel cell carcinoma treatment (AID 1296009); also: nearly all actives have a fitted effect of over 60% in size
# EXPERIMENTAL CONTEXT: MCC and control cell lines, CellTiter-Glo viability, 72 h; series mostly up to 46 µM
Inconclusive results are not listed. Active and inactive are the calls of the source. Calls follow the shape of the dose curve; as a rule, active = well fitted inhibition curve with a large enough effect; inconclusive = small, poorly fitted or top-dose-only effect; inactive = flat fitted curve, though single readings scatter.
Labels: label 1 (active), label 0 (inactive)

molecule="CCOC(=O)[C@H](CCc1ccccc1)N[C@@H](C)C(=O)N1CCCC1C(=O)O (some centres undefined)" class_label="label 0"
molecule=Clc1ccc(C2(c3ccc(-c4cn[nH]c4)cc3)CCNCC2)cc1 class_label="label 0"
molecule=CC(C)(F)C[C@H](N[C@@H](c1ccc(-c2ccc(S(C)(=O)=O)cc2)cc1)C(F)(F)F)C(=O)NC1(C#N)CC1 class_label="label 0"
molecule=CC(C)(O)CC(=O)NCCn1ccc2ncnc(Nc3ccc(Oc4cccc(C(F)(F)F)c4)c(Cl)c3)c21 class_label="label 0"
molecule=CN1CCC[C@H]1CCO[C@](C)(c1ccccc1)c1ccc(Cl)cc1 class_label="label 0"
molecule=CC(C)=CCCC(C)=CCCC(C)=CCCC(C)=CCCC(C)=CCCC(C)=CCCC(C)=CCCC(C)=CCCC(C)=CCO class_label="label 0"
molecule=Cc1ccc(NC(=O)c2cccc(N(C)C)c2)cc1NC(=O)c1ccc(O)cc1 class_label="label 1"
molecule=O=C(O)CCC=CCC[C@@H]1[C@H](N2CCCCC2)[C@@H](O)C[C@@H]1OCc1ccc(-c2ccccc2)cc1 class_label="label 0"
molecule=Cc1[nH]c(C=C2C(=O)Nc3ccc(S(=O)(=O)N(C)c4cccc(Cl)c4)cc32)c(C)c1C(=O)N1CCN(C)CC1 class_label="label 1"
